PROTOCOL_TEXT: Pharmacokinetics: plasma concentration and bioavailability by route (LC/MS/MS)
Type: in vivo, mice
MEASUREMENT_CONTEXT: mouse, plasma, 25 mg/kg; 1 hour after administration, sublingual route
Procedure: The peptide (1, 5, 15 and 25 mg/kg, 0.5 ml/kg) was administered sublingually to mice. Upon reaching specified time points of 1, 5, 15, 30, 60 and 120 min post-dose, each mouse was sacrificed and blood samples were collected via cardiac puncture. Plasma samples were then extracted and analyzed under LC/MS/MS. Systemic exposure of the peptide was also studied through intravenous, oral (gavage) and intraperitoneal routes.
Where a SMILES comes first, the peptide text is derived from it.

{"MOLECULE": "C[C@@H](O)[C@H](NC(=O)[C@@H]1CCCN1C(=O)[C@H](Cc1ccccc1)NC(=O)[C@@H]1CCCN1C(=O)[C@@H](N)CC(N)=O)C(=O)N[C@@H](Cc1c[nH]c2ccccc12)C(=O)N[C@@H](CCCNC(=N)N)C(=O)N[C@@H](CCCCN)C(=O)N[C@@H](CCCNC(=N)N)C(=O)N1CCC[C@H]1C(=O)NCC(=O)O [the peptide, NPFPTWRKRPG] (H-NPFPTWRKRPG-OH)", "level at 1 h": "> 100 ng/mL"}
